Cited source: patent US20230312583A1

- Target desc: CDK4/cyclin D1 (Homo sapiens (Human))
- Assay method text: Radiometric 33P-ATP kinase inhibition assay, CDK4/cyclin
- Measurement context: 10 μM ATP
Binary call on IC50 with cut-off 50 nM: strictly below means Satisfied, and equality or higher means Not satisfied.

Compound	Target desc	Label
COc1cc(Nc2ncc3ccc4nc(C)n(C(C)C)c4c3n2)ncc1N1CCOCC1 [VI-1]	CDK4/cyclin D1 (Homo sapiens (Human))	Not satisfied
COc1cc(Nc2ncc3ccc4ncn(C(C)C)c4c3n2)ncc1N1CCNC(C)(C)C1 [Compound I-5]	CDK4/cyclin D1 (Homo sapiens (Human))	Not satisfied
COc1cc(Nc2ncc3ccc4ncn(C(C)C)c4c3n2)ncc1N1CC2(CNC2)C1 [Compound I-4]	CDK4/cyclin D1 (Homo sapiens (Human))	Not satisfied
CC#CCOc1cc(Nc2ncc3ccc4ncn(C(C)C)c4c3n2)ncc1N1CCNCC1 [Compound I-13]	CDK4/cyclin D1 (Homo sapiens (Human))	Not satisfied
CC(C)n1cnc2ccc3cnc(Nc4cc(OCCF)c(N5CC6CC(C5)N6)cn4)nc3c21 [Compound I-9]	CDK4/cyclin D1 (Homo sapiens (Human))	Satisfied

* * *

- Target desc: CDK6/cyclin D1 (Homo sapiens (Human))
- Sequence (Q00534 whole entry, species assumed): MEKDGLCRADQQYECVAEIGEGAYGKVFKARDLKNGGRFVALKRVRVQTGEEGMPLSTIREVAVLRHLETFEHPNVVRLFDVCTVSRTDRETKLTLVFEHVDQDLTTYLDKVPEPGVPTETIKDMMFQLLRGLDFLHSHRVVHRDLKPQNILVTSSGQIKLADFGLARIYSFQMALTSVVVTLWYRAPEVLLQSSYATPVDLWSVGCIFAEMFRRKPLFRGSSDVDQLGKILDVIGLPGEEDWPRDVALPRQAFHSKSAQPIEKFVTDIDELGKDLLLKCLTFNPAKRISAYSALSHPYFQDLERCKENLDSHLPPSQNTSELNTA
- Sequence (P24385 whole entry partner, species assumed): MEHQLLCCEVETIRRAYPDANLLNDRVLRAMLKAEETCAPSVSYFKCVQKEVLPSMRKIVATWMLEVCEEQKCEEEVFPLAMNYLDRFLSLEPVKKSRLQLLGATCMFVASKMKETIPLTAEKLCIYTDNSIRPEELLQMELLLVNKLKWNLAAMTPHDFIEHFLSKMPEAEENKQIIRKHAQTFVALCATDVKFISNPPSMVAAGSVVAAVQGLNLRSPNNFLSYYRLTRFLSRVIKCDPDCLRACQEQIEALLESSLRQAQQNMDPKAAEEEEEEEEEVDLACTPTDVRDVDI
- Assay method text: Radiometric 33P-ATP kinase inhibition assay, CDK6/cyclin D1
- Measurement context: 10 μM ATP
pIC50: −log10 of the molar value.
Readout: pIC50

Compound	Target desc	Readout	Meas value
CC(C)n1cnc2ccc3cnc(Nc4cc(OCCF)c(N5CC6CC(C5)N6)cn4)nc3c21 [Compound I-9]	CDK6/cyclin D1 (Homo sapiens (Human))	pIC50	7.65

* * *

- Target desc: CDK4/cyclin D1 (Homo sapiens (Human), UniProt P11802)
- Sequence (P11802 whole entry, one chain of several): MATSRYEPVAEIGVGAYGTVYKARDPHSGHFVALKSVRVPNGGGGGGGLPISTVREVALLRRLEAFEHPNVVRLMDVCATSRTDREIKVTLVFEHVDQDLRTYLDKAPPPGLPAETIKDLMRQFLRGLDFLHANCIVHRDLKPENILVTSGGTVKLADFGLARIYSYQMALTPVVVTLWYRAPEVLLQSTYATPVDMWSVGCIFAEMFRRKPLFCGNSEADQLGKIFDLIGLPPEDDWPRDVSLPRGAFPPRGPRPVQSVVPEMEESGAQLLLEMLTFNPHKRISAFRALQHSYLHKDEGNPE
- Assay method text: Radiometric 33P-ATP kinase inhibition assay, CDK4/cyclin
- Measurement context: 10 μM ATP
pIC50: −log10 of the molar value.
# pIC50 per record follows

Molecule	pIC50
COc1cc(Nc2ncc3ccc4ncn(C(C)C)c4c3n2)ncc1N1CC2CCC1CN2 (stereo not shown)	7.18
COc1cc(Nc2ncc3ccc4ncn(C(C)C)c4c3n2)ncc1N1CC2(COC2)C1	6.73
COc1cc(Nc2ncc3ccc4ncn(C(C)C)c4c3n2)ncc1N1C2CCC1CNC2	7.01

* * *

Quick reference: IC50 of the listed items.
- Target desc: C-Klt (Homo sapiens (Human), UniProt P10721)
- Sequence (P10721 26-976): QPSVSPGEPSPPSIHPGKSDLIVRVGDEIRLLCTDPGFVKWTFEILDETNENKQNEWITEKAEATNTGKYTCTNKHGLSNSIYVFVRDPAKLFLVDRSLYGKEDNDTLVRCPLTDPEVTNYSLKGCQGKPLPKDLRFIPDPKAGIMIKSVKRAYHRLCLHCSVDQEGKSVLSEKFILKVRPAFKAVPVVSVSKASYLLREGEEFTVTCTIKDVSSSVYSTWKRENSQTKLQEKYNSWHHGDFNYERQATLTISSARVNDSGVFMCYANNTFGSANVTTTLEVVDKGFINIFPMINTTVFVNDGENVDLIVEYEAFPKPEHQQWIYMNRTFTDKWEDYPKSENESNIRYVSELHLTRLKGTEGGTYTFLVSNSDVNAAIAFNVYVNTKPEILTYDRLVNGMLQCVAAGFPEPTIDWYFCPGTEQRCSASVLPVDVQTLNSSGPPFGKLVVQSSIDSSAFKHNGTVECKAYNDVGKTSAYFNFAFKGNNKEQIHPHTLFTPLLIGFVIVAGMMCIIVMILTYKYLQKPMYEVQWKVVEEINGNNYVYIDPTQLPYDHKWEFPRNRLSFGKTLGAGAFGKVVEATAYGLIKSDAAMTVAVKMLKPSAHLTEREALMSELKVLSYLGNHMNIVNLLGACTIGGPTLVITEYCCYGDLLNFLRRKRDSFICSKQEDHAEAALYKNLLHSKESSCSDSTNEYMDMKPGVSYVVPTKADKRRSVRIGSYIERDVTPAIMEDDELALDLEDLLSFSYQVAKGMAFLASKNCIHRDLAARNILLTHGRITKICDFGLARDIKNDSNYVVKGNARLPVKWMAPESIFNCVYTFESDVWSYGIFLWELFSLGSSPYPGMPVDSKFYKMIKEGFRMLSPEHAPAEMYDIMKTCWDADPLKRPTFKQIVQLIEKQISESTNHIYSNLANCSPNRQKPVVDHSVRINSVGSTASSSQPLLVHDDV
- Assay method text: Radiometric 33P-ATP kinase inhibition assay, C-Klt
- Format: biochemical
- Measurement context: 10 μM ATP
Readout: IC50 (nM)

1) CC(C)n1cnc2ccc3cnc(Nc4cc(Oc5ccccc5)c(N5CCNCC5)cn4)nc3c21 70.9
2) COc1cc(Nc2ncc3ccc4ncn(C(C)C)c4c3n2)ncc1N1CCN(C)CC1 32.1
3) COc1cc(Nc2ncc3ccc4ncn(C(C)C)c4c3n2)ncc1N1CCNC(C)(C)C1 25.6
4) CCOc1cc(Nc2ncc3ccc4ncn(C(C)C)c4c3n2)ncc1N1CCN(C)CC1 31.5
5) CCOc1cc(Nc2ncc3ccc4ncn(CC)c4c3n2)ncc1N1CCN(CC)CC1 21.3
6) CC(C)n1cnc2ccc3cnc(Nc4cc(OCCF)c(N5CC6CC(C5)N6)cn4)nc3c21 15
7) CC(C)Oc1cc(Nc2ncc3ccc4ncn(C)c4c3n2)ncc1N1CCNCC1 137
8) COc1cc(Nc2ncc3ccc4nc(C)n(C(C)C)c4c3n2)ncc1N1CCOCC1 46
9) CC(C)n1cnc2ccc3cnc(Nc4cc(OCC5CC5)c(N5CCNCC5)cn4)nc3c21 111
10) COc1cc(Nc2ncc3ccc4ncn(C(C)C)c4c3n2)ncc1N1CC2(COC2)C1 60.6
11) COc1cc(Nc2ncc3ccc4ncn(C(C)C)c4c3n2)ncc1N1C2CCC1CNC2 29.8
